System: Escherichia coli K-12 BW25113
MEASUREMENT DESCRIPTION: relative growth (OD600 normalised to plate interquartile mean) (fraction); higher = less growth inhibition, active = 0.2 or less
CONDITIONS USED: 50 µM; LB; incubation time: overnight (16-24 h)
About 220 (0.56%) of roughly 39,000 compounds showed activity. The sample as a whole holds a higher share of actives than the screen did.
API: response.call in active, inactive

Examples from the recorded data:
- STRUCTURE SMILES STRING: "C[C@H]1CN([C@@H](C)CO)C(=O)c2cccc(NS(=O)(=O)c3cccs3)c2O[C@@H]1CN(C)S(=O)(=O)c1ccc(F)cc1"
  CLASS NAME: "inactive"
- STRUCTURE SMILES STRING: "C[C@H]1CN([C@@H](C)CO)C(=O)CCCn2cc(nn2)CO[C@@H]1CN(C)S(=O)(=O)c1cccc(C#N)c1"
  CLASS NAME: "inactive"
- STRUCTURE SMILES STRING: "C[C@@H]1CN([C@H](C)CO)C(=O)c2cc(NC(=O)Cn3cnnn3)ccc2O[C@@H]1CN(C)Cc1ccncc1"
  CLASS NAME: "inactive"
- STRUCTURE SMILES STRING: "NC[C@H]1OB(O)c2c(OCCO)ccc(Cl)c21"
  CLASS NAME: "inactive"
- STRUCTURE SMILES STRING: "NC[C@H]1OB(O)c2c(OCCCO)cccc21"
  CLASS NAME: "active"

Input line: Name the outcome recorded for `COC(=O)NN=Cc1c[n+]([O-])c2ccccc2[n+]1[O-]` in the assay.
Output line: inactive

Input line: // outcome(item) with item = `COCCOC(=O)N1C(=O)[C@@]2(c3cc(C#Cc4ccc(OC)cc4)ccc31)[C@H](C(=O)N1CCN(c3ncccn3)CC1)[C@H]1C(=O)O[C@H](c3ccccc3)[C@H](c3ccccc3)N1[C@@H]2c1ccccc1OCCO`
Output line: inactive

Input line: Which outcome did this test record for the compound `Cc1cc(-c2ccccc2)nc(-c2ccccc2)c1C` ?
Output line: inactive

====

Tested on: Escherichia coli K-12 BW25113;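 further: Wild-type cells incubated without shaking, value is the mean of two biological replicates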
MEASUREMENT DESCRIPTION: relative growth (OD600 normalised to plate interquartile mean) (fraction); higher = less growth inhibition, active = 0.2 or less
CONDITIONS USED: 50 µM; LB; incubation time: overnight (16-24 h)
The campaign covered roughly 39,000 compounds. About 220 (0.56%) showed activity. For the sample, actives were picked, then their nearest neighbours and some compounds at random.
Entry note: the call must match one of 1 for active, -1 for inactive

# count of solved cases: 3
- STRUCTURE SMILES STRING: "Cc1noc(C)c1NC(=O)Nc1cccc2c1O[C@@H](CN(C)Cc1ccc(Oc3ccccc3)cc1)[C@H](C)CN([C@H](C)CO)C2=O"
  CLASS NAME: -1
- STRUCTURE SMILES STRING: "Cc1noc(C)c1NC(=O)Nc1ccc2c(c1)C(=O)N([C@@H](C)CO)C[C@@H](C)[C@H](CN(C)Cc1ccncc1)OCCCC[C@H](C)O2"
  CLASS NAME: -1
- STRUCTURE SMILES STRING: "Cc1ccc(S(=O)(=O)Nc2ccc3c(c2)CC(=O)N([C@@H](C)CO)C[C@@H](C)[C@H](CN(C)CC2CC2)O3)cc1"
  CLASS NAME: -1

Now look at this one.
Input line: In this assay, the call recorded for `CN[C@H]1CN(c2ccc3c(=O)c(C(=O)O)cn(-c4nccs4)c3n2)C[C@@H]1OC` was what?
Output line: 1

Values from the supplement of paper PMC9446081
